Kindly supply the reported OD450 nm values for the records listed here.
- MEASURED_TARGET: T1, recombinant cyno monkey PCSK9 protein (cyno monkey, UniProt A8T666 31-692 (rhesus entry), limits assumed, biotinylated in the ELISA assays)
- T1 construct: also called cyno PCSK9; Cyno Monkey PCSK9-His
- T1 sequence (A8T666 31-692 limits assumed): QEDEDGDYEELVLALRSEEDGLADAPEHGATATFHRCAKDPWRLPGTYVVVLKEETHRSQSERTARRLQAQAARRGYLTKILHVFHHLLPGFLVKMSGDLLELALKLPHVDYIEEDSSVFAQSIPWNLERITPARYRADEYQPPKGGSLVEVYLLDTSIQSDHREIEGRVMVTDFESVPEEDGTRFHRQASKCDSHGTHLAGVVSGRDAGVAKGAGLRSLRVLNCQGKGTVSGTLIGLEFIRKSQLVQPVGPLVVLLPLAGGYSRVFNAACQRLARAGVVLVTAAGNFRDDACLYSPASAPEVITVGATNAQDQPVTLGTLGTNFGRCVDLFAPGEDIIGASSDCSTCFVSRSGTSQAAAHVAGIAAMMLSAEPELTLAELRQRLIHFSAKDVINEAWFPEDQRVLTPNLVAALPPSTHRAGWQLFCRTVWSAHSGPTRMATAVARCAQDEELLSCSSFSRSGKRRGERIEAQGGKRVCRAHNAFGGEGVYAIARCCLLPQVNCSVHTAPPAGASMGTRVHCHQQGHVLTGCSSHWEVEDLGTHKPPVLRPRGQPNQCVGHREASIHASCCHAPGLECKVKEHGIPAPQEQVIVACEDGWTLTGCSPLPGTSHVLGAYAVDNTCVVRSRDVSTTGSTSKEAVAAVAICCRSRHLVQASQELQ
- TEST_PROTOCOL: ELISA; antibody 0 nM
The reply should contain only the number, in OD450 nm.

GET /values?readout=OD450 nm&item= 139G1C5, fully human anti-PCSK9 antibody (antibody, human IgG1, V domains shown) VH: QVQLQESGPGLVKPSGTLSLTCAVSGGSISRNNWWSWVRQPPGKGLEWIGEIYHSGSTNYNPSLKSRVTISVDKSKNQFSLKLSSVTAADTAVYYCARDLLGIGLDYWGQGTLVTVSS VL: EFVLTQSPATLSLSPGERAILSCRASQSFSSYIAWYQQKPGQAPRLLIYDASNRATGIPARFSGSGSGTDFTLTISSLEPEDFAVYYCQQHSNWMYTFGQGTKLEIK
0.06

Next entry: 76A1B11, fully human anti-PCSK9 antibody (antibody, human IgG1, V domains shown) VH: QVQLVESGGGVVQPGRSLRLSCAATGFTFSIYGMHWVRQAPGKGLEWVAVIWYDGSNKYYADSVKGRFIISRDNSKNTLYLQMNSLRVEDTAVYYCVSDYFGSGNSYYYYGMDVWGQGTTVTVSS VL: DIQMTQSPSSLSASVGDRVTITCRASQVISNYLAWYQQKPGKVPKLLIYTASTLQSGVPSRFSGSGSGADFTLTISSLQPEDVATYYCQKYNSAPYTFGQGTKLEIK
0.07

Next entry: 152G2F7, fully human anti-PCSK9 antibody (antibody, human IgG1, V domains shown) VH: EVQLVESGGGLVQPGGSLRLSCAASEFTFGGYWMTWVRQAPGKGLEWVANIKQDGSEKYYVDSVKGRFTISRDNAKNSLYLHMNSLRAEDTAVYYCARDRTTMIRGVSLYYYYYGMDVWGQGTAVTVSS VL: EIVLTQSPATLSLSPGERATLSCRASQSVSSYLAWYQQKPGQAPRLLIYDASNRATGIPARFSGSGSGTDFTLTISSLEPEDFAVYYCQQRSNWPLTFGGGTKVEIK
0.06

Next entry: 74C10A8, fully human anti-PCSK9 antibody (antibody, human IgG1, V domains shown) VH: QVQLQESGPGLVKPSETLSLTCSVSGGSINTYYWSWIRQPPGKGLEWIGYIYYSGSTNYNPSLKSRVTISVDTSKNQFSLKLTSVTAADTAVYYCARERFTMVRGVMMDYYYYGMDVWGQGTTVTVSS VL: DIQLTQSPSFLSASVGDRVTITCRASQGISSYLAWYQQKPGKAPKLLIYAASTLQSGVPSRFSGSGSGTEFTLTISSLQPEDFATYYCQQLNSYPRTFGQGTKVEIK
0.06

Reference source for all entries: patent US20180355059A1
